- Target under test: HIV-1 Env of pseudovirus Du172.17 (HIV-1)
- Assay notes: cell-based or functional assay
Endpoint: neutralization IC50
Please make sure the unit comes right after the number.

MS-91 (antibody, V domains shown) VH: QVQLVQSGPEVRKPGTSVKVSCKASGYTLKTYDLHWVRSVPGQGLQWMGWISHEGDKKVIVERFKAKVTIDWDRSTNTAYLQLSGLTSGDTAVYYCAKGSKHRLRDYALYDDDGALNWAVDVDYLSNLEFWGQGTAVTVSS VL: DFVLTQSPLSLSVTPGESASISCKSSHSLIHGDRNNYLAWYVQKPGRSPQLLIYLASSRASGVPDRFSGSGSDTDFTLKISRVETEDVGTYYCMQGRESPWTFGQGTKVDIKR | 3.85 mg/L

Consider the record given below.
Ask | Supply neutralization IC50 value. Item: MS-77 (antibody, V domains shown) VH: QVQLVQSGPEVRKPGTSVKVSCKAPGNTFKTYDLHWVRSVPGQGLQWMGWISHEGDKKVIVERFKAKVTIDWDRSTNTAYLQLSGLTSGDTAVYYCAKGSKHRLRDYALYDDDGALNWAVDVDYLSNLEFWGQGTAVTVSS VL: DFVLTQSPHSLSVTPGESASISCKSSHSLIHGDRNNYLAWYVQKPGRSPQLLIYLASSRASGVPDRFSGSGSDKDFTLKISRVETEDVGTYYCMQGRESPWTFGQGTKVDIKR
Reply | 2.23 mg/L
